Source: PubChem BioAssay AID504605

Test system: mouse liver microsomes, LC-MS/MS, half-life
Assay: Inhibitors of 12-hLO: Mouse Liver Microsome Stability Profiling
Settings: at 1 µM; hits give high values
Procedure: Assay Provider: Holman, T.R., University of California, Santa Cruz Grant #: MH08128301 Screening Center PI: Austin, C.P. Screening Center: NIH Chemical Genomics Center [NCGC] […] 1uM of compound in incubated in mouse liver microsome; the reference compound is ketanserin. […] Samples are analyzed with LC-MS/MS.
metric: half-life

For the molecule shown here, CC(=O)NC(c1cccs1)c1cc(Br)c2cccnc2c1O (stereo unspecified) , give the reported half-life. 9 min
